Recorded CC50 at 5 days values for a group of compounds are listed next.
# procedure_text: Cytotoxicity assay in MT-4 cells
# Assay type: cell-based
# condition_info: human; uninfected MT-4 cells, 5 days incubation, Cell Titer Glo; read-out: MT4 CC50
Write the number in µM without appending the unit.

Recorded results for 3 compounds are shown here.
| structure_smiles | scale_unit | CC50 at 5 days |
| --- | --- | --- |
| COC1=NO[C@@]2(CC[C@H](C)N3C[C@H]2n2cc(C(=O)NCc4ccc(F)cc4F)c(=O)c(OCOC(=O)CC(C)C)c2C3=O)C1 | µM | 16.4 |
| CC1=NO[C@@]2(CC[C@H](C)N3C[C@H]2n2cc(C(=O)NCc4ccc(F)cc4F)c(=O)c(OC(=O)OCCCC(C)C)c2C3=O)C1 | µM | 14.9 |
| COC1=NO[C@@]2(CC[C@H](C)N3C[C@H]2n2cc(C(=O)NCc4ccc(F)cc4F)c(=O)c(OCOC(=O)CCCCCC(C)C)c2C3=O)C1 | µM | 27.2 |

Lab note: next compound to report on.
Q: Entry CCCCCCCCC(=O)Oc1c2n(cc(C(=O)NCc3ccc(F)cc3F)c1=O)[C@@H]1CN(C2=O)[C@@H](C)CC[C@]12CC(C)=NO2 : reported CC50 at 5 days = ?
A: 21.1

---

# procedure_text: Cytotoxicity assay in MT-4 cells
# Type: cell-based
# condition_info: human; uninfected MT-4 cells, 5 days incubation, Cell Titer Glo; read-out: MT4 CC50
# strict inequality: CC50 at 5 days < 20 µM yields Satisfied, everything else yields Not satisfied

Q: Record CCCCCCOC(=O)Oc1c2n(cc(C(=O)NCc3ccc(F)cc3F)c1=O)[C@@H]1CN(C2=O)[C@@H](C)CC[C@]12CC(OC)=NO2 : is its CC50 at 5 days strictly below 20 µM?
A: Satisfied

Q: Just wondering, is CC50 at 5 days of CCCC/C=C\CCCCCCCC(=O)Oc1c2n(cc(C(=O)NCc3ccc(F)cc3F)c1=O)[C@@H]1CN(C2=O)[C@@H](C)CC[C@]12CC(OC)=NO2 below 20 µM?
A: Satisfied

Q: Problem: For the molecule CCCCCCCCCC(=O)Oc1c2n(cc(C(=O)NCc3ccc(F)cc3F)c1=O)[C@@H]1CN(C2=O)[C@@H](C)CC[C@]12CC(C)=NO2 , is CC50 at 5 days under 20 µM?
A: Not satisfied

Q: hey, is CC50 at 5 days for CCCCCCCCCCCCCC(=O)Oc1c2n(cc(C(=O)NCc3ccc(F)cc3F)c1=O)[C@@H]1CN(C2=O)[C@@H](C)CC[C@]12CC(C)=NO2 lower than 20 µM or not?
A: Satisfied

Q: Would you kindly verify if CC50 at 5 days of CCCCCCCCCCCCCCCCCCOC(=O)OCOc1c2n(cc(C(=O)NCc3ccc(F)cc3F)c1=O)[C@@H]1CN(C2=O)[C@@H](C)CC[C@]12CC(OC)=NO2 is strictly less than 20 µM?
A: Not satisfied

---

# procedure_text: Cytotoxicity assay in MT-4 cells
# Type: cell-based
# condition_info: human; uninfected MT-4 cells, 5 days incubation, Cell Titer Glo; read-out: MT4 CC50
Entries and their CC50 at 5 days values follow.
Provide the reading as a plain figure in µM.

Below are worked cases with known answers.
| structure_smiles | CC50 at 5 days, µM |
| --- | --- |
| CC1=NO[C@@]2(CC[C@H](C)N3C[C@H]2n2cc(C(=O)NCc4ccc(F)cc4F)c(=O)c(OCOC(=O)CC(C)C)c2C3=O)C1 | 13.8 |
| COC1=NO[C@@]2(CC[C@H](C)N3C[C@H]2n2cc(C(=O)NCc4ccc(F)cc4F)c(=O)c(OC(=O)OCCCCC(C)C)c2C3=O)C1 | 17.5 |
| COC1=NO[C@@]2(CC[C@H](C)N3C[C@H]2n2cc(C(=O)NCc4ccc(F)cc4F)c(=O)c(OC(=O)OCC(C)C)c2C3=O)C1 | 15.9 |

Okay, now this molecule:
Q: Fill in the blank: the reported CC50 at 5 days of CC1=NO[C@@]2(CC[C@H](C)N3C[C@H]2n2cc(C(=O)NCc4ccc(F)cc4F)c(=O)c(OC(=O)CCCCCC(C)C)c2C3=O)C1 is ____.
A: 21.8

This collection of values is drawn from patent US20250122219A1.
